Reported Activity values follow for various molecules
System: Mus musculus
test_name: Thrombotic toxicity in ICR mouse assessed as tail bleeding time at 1.3 mmol/kg, ip after 15 mins
Assay type: organism-based
particulars: in vivo, 0.25 h
Write down the numeric answer in s and omit the unit.

Examples with their reported Activity follow.
[[record]]
smiles = "CC1(C)N=C(c2ccccc2[N+](=O)[O-])N(O)C1(C)C"
quantitative_readout = 119

[[record]]
smiles = "CC1(C)N=C(c2ccccc2F)N(O)C1(C)C"
quantitative_readout = 117

[[record]]
smiles = "CN(C)c1ccc(C2=NC(C)(C)C(C)(C)N2O)cc1"
quantitative_readout = 117

[[record]]
smiles = "COc1ccc(C2=NC(C)(C)C(C)(C)N2O)cc1OC"
quantitative_readout = 117

[[record]]
smiles = "CC1(C)N=C(c2ccc([N+](=O)[O-])cc2)N(O)C1(C)C"
quantitative_readout = 117


Query molecule follows.
[ask] Requested read-out: Activity. Entry: `COc1cc(C2=NC(C)(C)C(C)(C)N2O)ccc1O`
[reply] 118
